Test system: MALME-3M melanoma
Test: NCI tumour cell line growth inhibition, 48 h
Below is a list of entries, each paired with its recorded TGI value.

The compound identified as CC(NC(=O)C1(N)CCCC1)C(=O)O (stereo not given) registered its TGI at > 100 µM

The compound identified as CN1CCN(C(=S)N(C(=O)c2ccc(Cl)cc2)C2CCCCC2)CC1 registered its TGI at > 100 µM

The compound identified as Cc1cc(NS(=O)(=O)c2ccc(N=Nc3c(Nc4ccccc4)nn(-c4ccc(S(=O)(=O)Nc5ccncn5)cc4)c3C)cc2)no1 registered its TGI at > 100 µM

The compound identified as C[C@]12CC[C@H](O)CC1CCC[C@@H]2O (stereo not given in full) registered its TGI at > 100 µM

The compound identified as COc1ccc(-c2c3c(n(C4OC(COC(C)=O)C(OC(C)=O)C(OC(C)=O)C4OC(C)=O)c(=S)c2C#N)CCCC3)cc1 (stereo not given) registered its TGI at > 100 µM

The compound identified as C[C@@H](Br)[C@@H]1CC[C@H]2c3[nH]c4ccccc4c3CCN2C1 registered its TGI at 40.3 µM

The compound identified as CCCCCC(=O)OC[n+]1ccc(-c2c(COC(=O)NC(C)C)c(COC(=O)NC(C)C)c3n2CCC3)cc1 registered its TGI at > 100 µM

The compound identified as O=C1N(c2ccccc2)N=C2c3ccncc3C3=NN(c4ccccc4)C(=O)C123 (stereo not given) registered its TGI at > 100 µM

The compound identified as COC(=O)C1=CCS(=O)(=O)C1 registered its TGI at > 100 µM

The compound identified as OCC1C2C=CC(O2)[C@H]1CO (stereo not given in full) registered its TGI at > 100 µM

The compound identified as CCCCCCCCC[C@@H]1C[C@H](O)[C@H](Cc2ccccc2)N1C(=O)OC(C)(C)C registered its TGI at 34.5 µM

====

System: NCI-H522 lung
Assay: NCI tumour cell line growth inhibition, 48 h
OBSERVED_PROPERTY: TGI

Worked cases, answers included:
| COMPOUND | TGI |
| --- | --- |
| CC(=O)c1ccc(-c2ccc(C(C)=O)s2)s1 | > 100 µM |
| CN(C)C=Nc1cccc2c1NSN2 | > 100 µM |
| CC1(C)OC(=O)C(c2ccsc2)C(=O)O1 | > 100 µM |
| Clc1ccc2c(NCCCNCc3ccc4c(c3)OCO4)ccnc2c1 | 8.01 µM |
| c1ccc2c(c1)-c1nc3ccccc3cc1C2N1CCOCC1 (stereo not drawn) | > 100 µM |

The compound identified as C/C(=N\O)c1ccc(Nc2cc(-c3ccccc3)nc3c(O)cccc23)cc1 registered its TGI at 33.3 µM

The compound identified as COc1ccc(S(=O)(=O)Nc2c(/C=C\c3cc(OC)c(OC)c(OC)c3)ccc(OC)c2O)cc1OC registered its TGI at > 100 µM

The compound identified as N#C[C@H](c1nc2ccccc2[nH]1)c1nc2ccccc2nc1Cl registered its TGI at 16.2 µM

The compound identified as C[C@]12CC[C@H](O)CC1CCC[C@@H]2O (stereo partly drawn) registered its TGI at > 100 µM

The compound identified as CCCCCC(=O)OC[n+]1ccc(-c2c(COC(=O)NC(C)C)c(COC(=O)NC(C)C)c3n2CCC3)cc1 registered its TGI at > 100 µM

The compound identified as O=P1(NCCCl)OCCC(OO)N1CCCl (stereo not drawn) registered its TGI at 25.6 µM

The compound identified as CCCCCCCCC[C@@H]1C[C@H](O)[C@H](Cc2ccccc2)N1C(=O)OC(C)(C)C registered its TGI at 30 µM

The compound identified as COc1ccc2nc3c(cc2c1)C(=O)CC(C(F)(F)F)C3 (stereo not drawn) registered its TGI at > 100 µM
